src = patent US20230265116A1

Measured DC50 values are reported for all entries that follow.
Target: EGFR L858R/T790M/C797S (BaF3-LTC cells) (Homo sapiens, UniProt P00533, C797S/L858R/T790M)
Construct: expressed in transfected cells; host or cells: BaF3
Sequence (P00533 25-1210 T790M/C797S/L858R): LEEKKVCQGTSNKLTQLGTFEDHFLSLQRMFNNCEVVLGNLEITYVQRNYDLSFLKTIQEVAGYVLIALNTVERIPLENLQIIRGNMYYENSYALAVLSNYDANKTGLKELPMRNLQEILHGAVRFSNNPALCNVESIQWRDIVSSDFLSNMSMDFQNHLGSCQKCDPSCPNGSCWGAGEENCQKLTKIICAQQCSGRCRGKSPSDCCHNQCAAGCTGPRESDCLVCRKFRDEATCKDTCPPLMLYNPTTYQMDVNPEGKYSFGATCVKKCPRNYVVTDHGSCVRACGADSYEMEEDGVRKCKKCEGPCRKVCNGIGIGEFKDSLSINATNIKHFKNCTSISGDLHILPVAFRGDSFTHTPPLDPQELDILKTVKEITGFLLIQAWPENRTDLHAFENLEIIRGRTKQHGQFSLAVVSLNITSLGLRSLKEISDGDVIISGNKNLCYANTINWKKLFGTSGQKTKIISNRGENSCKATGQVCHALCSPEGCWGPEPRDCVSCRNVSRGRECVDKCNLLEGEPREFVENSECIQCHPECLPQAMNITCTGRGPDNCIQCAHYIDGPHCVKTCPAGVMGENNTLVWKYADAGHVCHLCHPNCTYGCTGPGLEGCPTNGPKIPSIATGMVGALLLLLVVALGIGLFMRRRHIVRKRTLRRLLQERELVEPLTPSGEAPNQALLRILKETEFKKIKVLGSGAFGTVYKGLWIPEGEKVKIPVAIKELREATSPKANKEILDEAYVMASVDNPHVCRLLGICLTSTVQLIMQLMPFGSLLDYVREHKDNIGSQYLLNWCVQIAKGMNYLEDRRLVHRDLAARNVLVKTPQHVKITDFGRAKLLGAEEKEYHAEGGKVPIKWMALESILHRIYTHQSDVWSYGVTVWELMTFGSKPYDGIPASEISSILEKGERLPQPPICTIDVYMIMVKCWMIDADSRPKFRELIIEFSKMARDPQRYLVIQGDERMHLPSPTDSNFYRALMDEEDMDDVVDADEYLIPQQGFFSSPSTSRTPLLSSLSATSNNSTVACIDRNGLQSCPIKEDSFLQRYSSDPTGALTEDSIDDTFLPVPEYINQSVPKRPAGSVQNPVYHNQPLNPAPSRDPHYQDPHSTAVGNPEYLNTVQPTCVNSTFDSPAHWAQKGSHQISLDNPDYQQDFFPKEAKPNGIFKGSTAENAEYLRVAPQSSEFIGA
Experiment: EGFR degradation HTRF assay, BaF3-LTC cells
Assay type: cell-based
Conditions: BaF3-LTC, 16h treatment; read-out: LTC DC50
Protocol: BaF3 WT(wild type), BaF3-LTC(L858R/T790M/C797S) and BaF3-DTC(Del19/T790M/C797S) cells are treated with compounds diluted in 0.2% DMSO cell culture medium and incubate for 16h, 37° C., 5% CO2, H1975-#36, H1975-#28, H1975-#23 and HCC827 cells are treated with compounds diluted in 0.2% DMSO cell culture medium on day 2, incubate for 16h, 37° C., 5% CO2.the final concentriation of compounds in all assay is start with 10 uM, 5-fold dilution, total 8 doses were included. […]
Readout type: DC50 (nM)

[[record]]
molecule = "CCc1cc(Nc2ncc(Br)c(Nc3ccc4nccnc4c3P(C)(C)=O)n2)c(OC)cc1N1CCC(N2CCN(CC3CCN(c4ccc5c(c4)CN(C4CCC(=O)NC4=O)C5=O)CC3)CC2)CC1 (centres unmarked) [Example 244]"
readout_type = "DC50"
modifier = "="
recorded_number = 13

[[record]]
molecule = "CCc1cc(Nc2ncc(Br)c(Nc3ccc4nccnc4c3P(C)(C)=O)n2)c(OC)cc1N1CCC(N2CCN(CC3CCN(c4cc(F)c(C5CCC(=O)NC5=O)c(F)c4)CC3)CC2)CC1 (centres unmarked) [Example 303]"
readout_type = "DC50"
modifier = "="
recorded_number = 41.2

[[record]]
molecule = "CCc1cc(Nc2ncc(Br)c(Nc3ccc4nccnc4c3P(C)(C)=O)n2)c(OC)cc1N1CCC(N2CCN(CCc3ccc(NC4CCC(=O)NC4=O)cc3)CC2)CC1 (centres unmarked) [Example 48]"
readout_type = "DC50"
modifier = "="
recorded_number = 24.3

[[record]]
molecule = "COc1cc(N2CCC(N3CCN(CCC4CCN(c5cc(F)c(C6CCC(=O)NC6=O)c(F)c5)CC4)CC3)CC2)c(C)cc1Nc1ncc(Br)c(Nc2ccc3nccnc3c2P(C)(C)=O)n1 (centres unmarked) [Example 215]"
readout_type = "DC50"
modifier = "="
recorded_number = 20.5

[[record]]
molecule = "CCc1cc(Nc2ncc(Br)c(Nc3ccc4nc(C5CC5)ccc4c3P(C)(C)=O)n2)c(OC)cc1N1CCC(N2CCN(CC3CN(c4ccc5c(c4)CN(C4CCC(=O)NC4=O)C5=O)C3)CC2)CC1 (centres unmarked) [Example 426]"
readout_type = "DC50"
modifier = "="
recorded_number = 6.67

[[record]]
molecule = "CCc1cc(Nc2ncc(Br)c(Nc3ccc4nccnc4c3P(C)(C)=O)n2)c(OC)cc1N1CCC(N2CCN(C3CC(c4ccc5c(c4)C(C)(C)C(=O)N5C4CCC(=O)NC4=O)C3)CC2)CC1 (centres unmarked) [Example 317]"
readout_type = "DC50"
modifier = "="
recorded_number = 9.47

[[record]]
molecule = "COc1cc(N2CCC(N3CCN(CCC4CCN(c5cc(F)c(C6CCC(=O)NC6=O)c(F)c5)CC4)CC3)CC2)c(C)cc1Nc1ncc(Br)c(Nc2ccc3nc(C)ccc3c2P(C)(C)=O)n1 (centres unmarked) [Example 217]"
readout_type = "DC50"
modifier = "="
recorded_number = 86.8

[[record]]
molecule = "CCc1cc(Nc2ncc(Br)c(Nc3ccc4nccnc4c3P(C)(C)=O)n2)c(OC)cc1N1CCC(N2CCN(CC3CN(c4cccc(C5CCC(=O)NC5=O)c4)C3)CC2)CC1 (centres unmarked) [Example 226]"
readout_type = "DC50"
modifier = "="
recorded_number = 31.4

[[record]]
molecule = "CCc1cc(Nc2ncc(Br)c(Nc3ccc4nccnc4c3P(C)(C)=O)n2)c(OC)cc1N1CCC(N2CCN(CCCN3CCN(c4ccc5c(c4)C(=O)N(C4CCC(=O)NC4=O)C5=O)CC3)CC2)CC1 (centres unmarked) [Example 60]"
readout_type = "DC50"
modifier = "="
recorded_number = 89

[[record]]
molecule = "CCc1cc(Nc2ncc(Br)c(Nc3ccc4nccnc4c3P(C)(C)=O)n2)c(OC)cc1N1CCC(N2CCN(CCc3ccc(C4CCC(=O)NC4=O)cc3F)CC2)CC1 (centres unmarked) [Example 6]"
readout_type = "DC50"
modifier = "="
recorded_number = 102

[[record]]
molecule = "CCc1cc(Nc2ncc(Br)c(Nc3ccc4ncc(F)cc4c3P(C)(C)=O)n2)c(OC)cc1N1CCC(N2CCN(CCc3cc(F)c(C4CCC(=O)NC4=O)c(F)c3)CC2)CC1 (centres unmarked) [Example 336]"
readout_type = "DC50"
modifier = "="
recorded_number = 9.91

[[record]]
molecule = "CP(C)(=O)c1c(Nc2nc(Nc3ccc(N4CCN(C5CN(CC6CN(c7ccc8c(c7)C(=O)N(C7CCC(=O)NC7=O)C8=O)C6)C5)CC4)c(F)c3)ncc2Br)ccc2nccnc12 (centres unmarked) [Example 259]"
readout_type = "DC50"
modifier = "="
recorded_number = 7.04

[[record]]
molecule = "CCc1cc(Nc2ncc(Br)c(Nc3ccc4nccnc4c3P(C)(C)=O)n2)c(OC)cc1N1CCC(N2CCN(C(=O)C3CCN(CC4CCN(c5ccc6c(c5)C(=O)N(C5CCC(=O)NC5=O)C6=O)CC4)CC3)CC2)CC1 (centres unmarked) [Example 63]"
readout_type = "DC50"
modifier = ">"
recorded_number = 2000

[[record]]
molecule = "CCc1cc(Nc2ncc(Br)c(Nc3ccc4nc(C(C)C)ccc4c3P(C)(C)=O)n2)c(OC)cc1N1CCC(N2CCN(CCC3CCN(c4cc(F)c(C5CCC(=O)NC5=O)c(F)c4)CC3)CC2)CC1 (centres unmarked) [Example 313]"
readout_type = "DC50"
modifier = "="
recorded_number = 53.7

[[record]]
molecule = "CCc1cc(Nc2ncc(Br)c(Nc3ccc4nccnc4c3P(C)(C)=O)n2)c(OC)cc1N1CCC(N2CCN(CCc3cc(F)c(C4CCC(=O)NC4=O)cc3Cl)CC2)CC1 (centres unmarked) [Example 165]"
readout_type = "DC50"
modifier = "="
recorded_number = 44

[[record]]
molecule = "CCc1cc(Nc2ncc(Br)c(Nc3ccc4nccnc4c3P(C)(C)=O)n2)c(OC)cc1N1CCC(N2CCN(CCc3ccc4nn(C5CCC(=O)NC5=O)cc4c3)CC2)CC1 (centres unmarked) [Example 309]"
readout_type = "DC50"
modifier = "="
recorded_number = 32.1

[[record]]
molecule = "CCc1cc(Nc2ncc(Br)c(Nc3ccc4nc(C)ccc4c3P(C)(C)=O)n2)c(OC)cc1N1CCC(N2CCN(C(=O)[C@@H]3CCN(c4cc(F)c(C5CCC(=O)NC5=O)c(F)c4)C3)CC2)CC1 (some centres unmarked) [Example 208]"
readout_type = "DC50"
modifier = "="
recorded_number = 4.13

[[record]]
molecule = "CCc1cc(Nc2ncc(Br)c(Nc3ccc4nccnc4c3P(C)(C)=O)n2)c(OC)cc1N1CCC(N2CCN(C3CCN(c4ccc(C5CCC(=O)NC5=O)cc4)C3)CC2)CC1 (centres unmarked) [Example 281]"
readout_type = "DC50"
modifier = "="
recorded_number = 63.3

[[record]]
molecule = "COc1cc(N2CCC(N3CCN(CCc4cc(F)c(C5CCC(=O)NC5=O)c(F)c4)CC3)CC2)c(C(C)O)cc1Nc1ncc(Br)c(Nc2ccc3nccnc3c2P(C)(C)=O)n1 (centres unmarked) [Example 430]"
readout_type = "DC50"
modifier = "="
recorded_number = 4.5

[[record]]
molecule = "CCc1cc(Nc2ncc(Br)c(Nc3ccc4nc(C(F)(F)F)ccc4c3P(C)(C)=O)n2)c(OC)cc1N1CCC(N2CCN(CCC3CCN(c4cc(F)c(C5CCC(=O)NC5=O)c(F)c4)CC3)CC2)CC1 (centres unmarked) [Example 437]"
readout_type = "DC50"
modifier = "="
recorded_number = 28

